# system-name: Protein RecA (Mycobacterium tuberculosis)
# protocol-notes: Fluorescence Cell-Free Homogeneous Dose Retest to Identify Inhibitors of RecA-Intein Splicing Activity. [Related pubchem assays (depositor defined):AID2097, AID2223, AID489010, AID492950]
# Format: functional
Activity calls are given as the source filed them.
Possible outcomes: 1 (yes) for active, 0 (no) for inactive

O=C(Oc1ccccc1N1C(=O)CCC1=O)c1ccco1 :: 1 (yes)
CCn1nc(/C=C/c2ccccc2)nc2c(=O)n(C)c(=O)nc1-2 :: 1 (yes)
O=c1c2ccccc2nc2n1CCC2 :: 1 (yes)
CC(NC(=O)/C(C#N)=C/c1ccc(Cl)c([N+](=O)[O-])c1)c1ccccc1 (stereo unspecified) :: 1 (yes)
COc1ccc(OCc2cc(C(=O)N3CCCC(OC)C3)no2)c2ccccc12 (stereo unspecified) :: 1 (yes)
CCOC(=O)C1=C(O)c2ccccc2C(=O)/C1=C\c1ccc(CC)cc1 :: 1 (yes)
COc1ccc(Nc2ccc(OC)cc2)cc1 :: 0 (no)
O=[N+]([O-])C(/C=C(\Cl)[N+](=O)[O-])=C1N(Cc2ccc(Cl)nc2)CCN1Cc1ccc(Cl)nc1 :: 1 (yes)
CC(=O)Nc1ccc(NC(=O)c2nc(S(=O)(=O)Cc3cccc(C)c3)ncc2Cl)cc1 :: 1 (yes)
O=C1NC(=O)C(=Cc2ccc(Oc3ccc([N+](=O)[O-])cc3)cc2)C(=O)N1 :: 0 (no)
CCOC(=O)c1c(C)sc2c1N(C(=O)CCl)c1cc(Cl)ccc1S2 :: 1 (yes)
O=C(CCl)c1ccc2c(c1)CCN2C(=O)C1CCCCC1 :: 1 (yes)
CC(C)(C)c1ccc(-n2nc(C#N)c(Cl)cc2=O)cc1 :: 1 (yes)
Cc1cc(C)cc(OC(=O)C[S+]([O-])c2ccc(C(F)(F)F)cc2[N+](=O)[O-])c1 (stereo unspecified) :: 1 (yes)

====

# system-name: Corticotropin-releasing factor receptor 2/Corticotropin-releasing factor-binding protein (Homo sapiens, UniProt P24387+Q13324)
# Sequence (Q13324 whole entry): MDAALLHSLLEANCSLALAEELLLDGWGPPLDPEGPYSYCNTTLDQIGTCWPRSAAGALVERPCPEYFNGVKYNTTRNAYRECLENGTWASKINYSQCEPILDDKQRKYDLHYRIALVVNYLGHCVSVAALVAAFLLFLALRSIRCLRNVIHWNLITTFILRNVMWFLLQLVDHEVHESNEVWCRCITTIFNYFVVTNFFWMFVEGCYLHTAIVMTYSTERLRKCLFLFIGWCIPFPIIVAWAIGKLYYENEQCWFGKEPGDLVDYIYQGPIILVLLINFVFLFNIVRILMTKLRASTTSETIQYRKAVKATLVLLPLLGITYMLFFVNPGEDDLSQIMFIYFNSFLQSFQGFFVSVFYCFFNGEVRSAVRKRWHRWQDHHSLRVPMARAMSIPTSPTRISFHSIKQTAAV
# Sequence (P24387 whole entry): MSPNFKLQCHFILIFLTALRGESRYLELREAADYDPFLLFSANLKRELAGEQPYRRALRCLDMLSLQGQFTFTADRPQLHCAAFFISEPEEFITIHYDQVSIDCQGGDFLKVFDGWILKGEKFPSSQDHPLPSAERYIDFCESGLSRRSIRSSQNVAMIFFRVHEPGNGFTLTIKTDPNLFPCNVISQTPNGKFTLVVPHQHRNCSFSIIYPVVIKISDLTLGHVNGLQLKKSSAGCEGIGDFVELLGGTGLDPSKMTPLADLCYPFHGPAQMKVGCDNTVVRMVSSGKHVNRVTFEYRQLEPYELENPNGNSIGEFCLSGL
# protocol-notes: Dose Response confirmation of uHTS hits for small molecule antagonists of the CRF-binding protein and CRF-R2 receptor complex.
# Format: functional
# assay-context: read-out: IC50_Mean
The source made the active and inactive calls.
Labels: true = active, false = inactive

Cc1cc([N+](=O)[O-])ccc1NCc1ccc2c(c1)OCCO2 :: true
Cc1ccc(C(=O)COC(=O)CCN2C(=O)C3C4C=CC(C5CC45)C3C2=O)cc1 (stereo unspecified) :: false
COCCn1c(-c2ccsc2)nc2c1c(=O)[nH]c(=O)n2CC(C)C :: false
CCCCNc1nc(CC)c2c(c1C#N)CCCC2 :: false
Cc1c(NS(=O)(=O)c2ccccc2)ccc([N+](=O)[O-])c1Cl :: true
COC(=O)c1ccc(Cc2ccccc2)o1 :: false
COc1cc(CCc2ccccc2)c(C(=O)O)c(O)c1C/C=C(/C)CCC=C(C)C :: true
CCOC(=O)c1nnn(CC(=O)N2N=C(c3ccccc3)CC2c2ccccc2)c1C(=O)OCC (stereo unspecified) :: false
COC(=O)c1ccc2nc3c(cc2c1)[C@@H]1CCN2C(=O)CCC[C@H](C3)[C@H]12 :: false
CCOC(=O)c1cccc(NS(=O)(=O)Cc2ccccc2)c1 :: false
CC1=C(C(=O)OCc2ccccc2)C(/C=C/c2ccccc2)N2C(=O)CCSC2=N1 (stereo unspecified) :: false
